system: P. falciparum Dd2 (clone B2) asexual blood stage parasites; test: P. falciparum Dd2 asexual blood stage SYBR Green-I 72 h proliferation assay (qHTS); type: cell-based, Plasmodium falciparum; conditions: averaged P. falciparum asexual blood stage potency, log10 of AC50 in M
PROPERTY MEASURED: Pf ABS Log AC50 (M)

Take a look at these entries with their results.
Requested read-out Pf ABS Log AC50 (M), target or system P. falciparum Dd2 (clone B2) asexual blood stage parasites, entry `N=c1n(N)c2ccccc2n1CC(=O)c1ccc(Br)cc1`
-5.837 M

Field entry: `c1ccc2c(NCCc3c[nH]c4ccccc34)c3ccccc3nc2c1`
-5.937 M

Input `CC1CCN(C(=O)CSc2nc(-c3ccc(C(C)C)cc3)no2)CC1`
-5.925 M

Would you mind doing COc1cc(Br)c(C(C)NC(=O)c2cccc(Br)c2)cc1OC (stereo not shown) as well?
-5.887 M

Repeat for the following compound: `CCN(C(=O)CSc1nc(-c2ccc(C(C)C)cc2)no1)c1ccccc1`
-6.025 M

Continuing:
What is its Pf ABS Log AC50 (M) for P. falciparum Dd2 (clone B2) asexual blood stage parasites? Entry: `Cc1cc(C)n(-c2nnc(N3CCN(c4ccccc4)CC3)nn2)n1`
-6.012 M

Proceed to `CCSc1nc2sc3c(c2c(=O)n1-c1ccccc1)CCN(C(C)C)C3`
-6.000 M

The measured values listed here are drawn from paper PMC7822874.
